# System: HL-60(TB) leukemia
# Method Description: NCI-60 one-dose screen, 48 h (100 = growth as untreated, 0 = no growth, -100 = all killed)
# Test Conditions: 10 µM unless noted
About 83,000 compounds went through this panel and 20% of them were active in at least one assay; those are over-represented in the sample as a whole.
# key: entry, value: growth
Please respond with the number in % and leave the unit unwritten.

Molecule	Test Value
COc1ccc(C(=O)CSc2nnc(-c3cc(-c4ccccc4)nc4ccccc34)o2)cc1	111

Now consider a different molecule.
# input Looking for the measured growth of "CCCCNCCCCCNc1cc(OC)cc2cccnc12" , can you help?
# output 67.5

====

# Tested on: SF-268 CNS
# Method Description: NCI-60 one-dose screen, 48 h (100 = growth as untreated, 0 = no growth, -100 = all killed)
# Test Conditions: 10 µM unless noted
Compounds without any hit were thinned out: in the full panel of roughly 83,000, 20% have a hit.
The reader will find reported growth values listed item by item below.
# output: bare number, implied unit %

Example compounds with recorded growth:
Compound	Assayed System	Assay Readout	Test Value
Cc1cc(NC(=O)NCCOc2ccc(N3C(N)=NC(N)=NC3(C)C)cc2Cl)ccc1S(=O)(=O)F	SF-268 CNS	growth	29
CC(C)Nc1ccc(Nc2ccccc2)cc1	SF-268 CNS	growth	32.8
O=S(=O)(c1ccc(Cl)cc1)C(Cl)(Cl)Cl	SF-268 CNS	growth	45.5
Oc1ccc2c3c1O[C@H]1c4[nH]c5ccccc5c4C[C@@]4(O)C(C2)N(CC2CC2)CC[C@]314	SF-268 CNS	growth	93.2
NC(=O)OCC(CO)(c1ccccc1)c1ccccc1	SF-268 CNS	growth	101
O=c1cc[nH]c(=O)o1	SF-268 CNS	growth	99.9
CC(=O)N(C)C1=Nc2ccc(Cl)cc2C(c2ccccc2)=[N+]([O-])C1	SF-268 CNS	growth	105
CNC(=O)Oc1ccccc1	SF-268 CNS	growth	107

# input Kindly state the measured growth obtained for "c1ccc(-c2ccc3ccccc3[o+]2)cc1" with SF-268 CNS.
# output 88.7

# input Query the reported growth for SF-268 CNS; item: "S=P(Nc1ccccc1)(Nc1ccccc1)c1ccccc1"
# output 90.8

# input Requested read-out growth, target or system SF-268 CNS, entry "O1[As]2O[As]3O[As]1O[As](O2)O3"
# output 5.42

# input Can you look up growth on SF-268 CNS for CC(N)Cc1ccc(O)cc1 (configuration not stated) ?
# output 99.4

====

# Tested on: EKVX NSCLC
# Method Description: NCI-60 one-dose screen, 48 h (100 = growth as untreated, 0 = no growth, -100 = all killed)
# Test Conditions: 10 µM unless noted
The panel holds about 83,000 compounds, 20% with a hit somewhere; the sample as a whole holds those more often. Active and inactive are the calls of the source. Rule for the calls: active = growth percent below 10; inactive = the rest.
# growth per entry

Check out these entries, answers already filled in.
Molecule	growth
COc1ccc(/C=C(/C(=O)N2CCCC2)c2cc(OC)c(OC)c(OC)c2)cc1N	52.8% (inactive)
c1ccc(-c2ccc3ccccc3[o+]2)cc1	87.1% (inactive)

# input Any idea what its growth is? The molecule is NC(=O)C(Br)CBr (stereo unspecified)
# output -73.1% (active)

# input State the recorded growth for this entry: "Cc1ccccc1O"
# output 111% (inactive)

# input Which value of growth has been reported for O=[As]c1ccc(C(=O)c2ccc(Oc3ccccc3)cc2)cc1 (stereo unspecified) in the records?
# output -80.8% (active)

# input Entry CC(=O)C1CCC2C3CC=C4CC(OC(=O)Cc5ccc(N(CCCl)CCCl)cc5)CCC4(C)C3CCC12C (stereo unspecified) : reported growth = ?
# output 83.1% (inactive)

====

# System: NCI-H226 lung
# Method Description: NCI-60 one-dose screen, 48 h (100 = growth as untreated, 0 = no growth, -100 = all killed)
# Test Conditions: 10 µM unless noted
# Experimental: Growth inhibition of the NCI-H226 human Non-Small Cell Lung tumor cell line is measured as a screen for anti-cancer activity. Cells are grown in 96 well plates and exposed to the test compound for 48 hours. Compounds are tested at a single concentration, which is 10^-5 M for most compounds. The reported endpoint is percent growth (GI% or GIPRCNT), where numbers from 0 - 100% represent growth inhibition, and numbers from -100% - 0 represent cell death. […]
The panel holds about 83,000 compounds, 20% with a hit somewhere; the sample as a whole holds those more often.
Recorded growth by entry
Number only, in %; omit the unit.

Guide cases for growth, answers given:
Compound	Assayed System	growth (%)
O=C(CCF)c1ccc(O)cc1	NCI-H226 lung	105
Clc1ccc(SSC(Cl)(Cl)Cl)cc1	NCI-H226 lung	110
O=S(=O)(O)c1ccc(-c2ccc([As](=O)(O)O)cc2)cc1	NCI-H226 lung	110

# input What value of growth has been recorded for this entry: CSc1ccccc1NP1(=O)OCC(C)([N+](=O)[O-])CO1 (configuration not stated)
# output 98.4

# input Recorded growth for CC(=O)O[C@H]1CCC2C3CCC4=C/C(=N/O)CCC4(C)C3CCC21C (some centres not stated) , please?
# output 98.1

# input Endpoint output: growth of "O=C(CF)N(O)c1ccc(/C=C/c2ccccc2)cc1" . Value?
# output -22.9

# input # growth lookup, item "CC(=O)[O][Hg][c]1ccccc1"
# output 81.9

# input Report growth for "O=C1NC(=S)NC(=O)C1=Cc1ccccc1" please.
# output 98.3

# input Which growth value belongs to "CC1(C)N=C(N)N=C(N)N1c1ccc(CNC(=O)Nc2ccc(S(=O)(=O)F)c(Cl)c2)c(Cl)c1" ?
# output 83.8

====

# Test system: HL-60(TB) leukemia
# Method Description: NCI-60 one-dose screen, 48 h (100 = growth as untreated, 0 = no growth, -100 = all killed)
# Test Conditions: 10 µM unless noted
Compounds without any hit were thinned out: in the full panel of roughly 83,000, 20% have a hit.
Assay Readout: growth (%)
Numeric answer only, unit % assumed.

Compound	Test Value
Cn1c2c(c3ccc(Cl)c(Cl)c31)C(C#N)C1(CCNCC1)NC2=O (stereo not given)	4.92
O=C1CCCc2nc3sc4c(=O)n(-c5ccccc5Cl)nnc4c3cc21	109
Cc1c2c[n+](C(C)C)ccc2c(C)c2c1[nH]c1ccccc12	14.4
CCC(c1ccc(OC)cc1)C(CC)c1ccc(O)c(CN2CCN(C)CC2)c1 (stereo not given)	55.3
O=C(Nc1ccc(F)cc1)c1ccc(C(=O)Nc2ccc(F)cc2)cc1	107

# input Requested read-out: growth. Entry: OCCNCCNC(Cc1ccc(Cl)cc1)c1ccccc1 (stereo not given)
# output 76.4

# input I have this compound here, "CCN(CC)c1ccc2nc3ccc(N=Nc4ccc(N(C)C)cc4)cc3[n+](-c3ccccc3)c2c1" , and I need its recorded growth.
# output -32.2

# input Query: growth; subject: Nc1ccn(C2CC(O)C(CO)O2)c(=O)n1 (stereo not given)
# output 86.1

====

# Test system: HL-60(TB) leukemia
# Method Description: NCI-60 one-dose screen, 48 h (100 = growth as untreated, 0 = no growth, -100 = all killed)
# Test Conditions: 10 µM unless noted
The panel holds about 83,000 compounds, 20% with a hit somewhere; the sample as a whole holds those more often. The source made the active and inactive calls. The calls were made as follows: active = growth percent below 10; inactive = the rest.
Assay Readout: growth

Compound	growth
CN1CCN(Cc2ccc(NC(=O)c3cncc(C#Cc4cnc(N)c5ncccc45)c3)cc2Cl)CC1	21.5% (inactive)
CCCCCN1CCN(C(CC(=O)c2ccccc2)C(=O)c2ccccc2)CC1 (stereo not given)	60.4% (inactive)
Cc1ccc(C2CCCCC2)cc1Br	97% (inactive)
Cc1nn(-c2cccc(Cl)c2)c(C)c1N=Nc1ccc(Br)cc1	77.9% (inactive)

Next, consider the following compound.
# input Which value of growth has been reported for "O=C(Nc1ccc2ncnc(Nc3ccc(Oc4cccc(F)c4)c(Cl)c3)c2c1)c1ccc(CNCCO)cc1" in the records?
# output 22.3% (inactive)

====

// values below are reported growth
# Test system: HL-60(TB) leukemia
# Method Description: NCI-60 one-dose screen, 48 h (100 = growth as untreated, 0 = no growth, -100 = all killed)
# Test Conditions: 10 µM unless noted
Compounds without any hit were thinned out: in the full panel of roughly 83,000, 20% have a hit.
Give the value in % but do not write % after it.

Examples from the recorded data:
Compound	Unit Name	growth
CCOC(=O)c1c(C)oc2ncnc(Nc3ccc(C(=O)NCCc4ccccc4)cc3)c12	%	87.7
CCOc1cc(NC(=O)c2ccccc2)c(OCC)cc1N	%	109
CCN1C(=O)N(CC)C2Nn3c(s/c(=C4\C(=O)N(C(C)C)c5ccccc54)c3=O)=NC21 (stereo not given)	%	6.28

# input I am curious: what growth value has been reported for "CCN(CC)c1ccc(C=C2C(=O)NC(=S)NC2=O)cc1" ?
# output 42.7

# input Suppose we examine the compound "O=C(Nc1cc(Cl)cc(Cl)c1)Oc1c(Cl)c(Cl)c(Cl)c(Cl)c1Cl" ; what growth value has been reported?
# output 60.9

# input Which measured growth value corresponds to "O=C1/C(=C\c2ccc(F)cc2)CN(C(=O)c2ccccc2F)C/C1=C\c1ccc(F)cc1" ?
# output -4.26

# input Which value of growth has been reported for CCC(O)C(C)(C)C (stereo not given) in the records?
# output 114

# input Consider the compound shown here: "OCc1cnc2ccccc2c1NC1CCCCCC1" What is its recorded growth?
# output 88.5

# input Can you share its growth? I mean this compound: "C=C(C)[C@@H]1CC[C@]2(C(=O)NC3CCCCC3)CC[C@]3(C)[C@H](CC[C@@H]4[C@@]5(C)CCC(=O)C(C)(C)[C@@H]5CC[C@]43C)[C@@H]12"
# output 76.6

# input # lookup: growth of "CC(C)c1c(C(=O)c2ccccc2)c(-c2ccccc2)c(-c2ccc(F)cc2)n1CC[C@@H](O)C[C@@H](O)CC(=O)O"
# output 74
